Source listed as patent US20260159579A1.

- TGT: T1, Mouse Fc-human GDF15 (Mu IgG1Fc_Fxa_Hu GDF15) (human)
- T1 construct: Whole entry is the fusion: mouse IgG1 Fc, FXa site and linker, mature human GDF15; described as dimeric; also called Murine dimeric IgG1 Fc-human GDF-15 with FXa cleavage site; control human GDF15
- T1 chain: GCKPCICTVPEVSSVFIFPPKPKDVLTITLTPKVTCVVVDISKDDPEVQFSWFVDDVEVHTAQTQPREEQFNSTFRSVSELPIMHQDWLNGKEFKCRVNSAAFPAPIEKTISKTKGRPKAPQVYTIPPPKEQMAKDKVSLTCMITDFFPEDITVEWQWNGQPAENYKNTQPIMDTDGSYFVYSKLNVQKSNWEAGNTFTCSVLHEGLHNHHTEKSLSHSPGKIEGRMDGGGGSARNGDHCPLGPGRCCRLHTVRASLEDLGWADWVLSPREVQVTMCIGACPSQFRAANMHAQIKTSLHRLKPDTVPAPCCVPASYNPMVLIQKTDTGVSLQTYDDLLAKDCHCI
- PROCEDURE_TEXT: SPR BIAcore T200, 37C; Fc-GDF15 captured, IgG as analyte; average of runs
Entries and their measured Kd follow.

>  <BINDER>
GDF15_0470 (antibody, human IgG1, kappa, V domains shown, Tested in bivalent format; also called GDF15-470) VH: QVQLVQSGAEVKKPGASVKVSCKASGYPFEGWYIHWVRQAPGQGLEWMGWNNPRTGLTNHAQKFQGRVTMTRDTSISTAYMELSRLRSDDTAVYYCARGVGADAAFDIWGQGTMVTVSS VL: EIVLTQSPATLSLSPGERATLSCRSSQSLLWKHGYNYLDWYQQKPGQAPRLLIYLDRNRAHGIPARFSGSGSGTDFTLTISSLEPEDFAVYYCMQSFETPITFGQGTKVEIKR

>  <REPORTED_RESULT>
< 0.01 nM

$$$$

Next:
State the recorded Kd for this entry: GDF15_001 (antibody, human IgG1, kappa, V domains shown, Tested in bivalent format; IgG1 heavy chain, kappa light chain; also called ponsegromab; PF-06946860) VH: QVQLVQSGAEVKKPGSSVKVSCKASGYTFSSYNIDWVRQAPGQGLEWMGGINPIFGTAFYNQKFQGRVTITADESTSTAYMELSSLRSEDTAVYYCAREAITTVGAMDHWGQGTLVTVSS VL: EIVLTQSPATLSLSPGERATLSCRTSQSVHNYLAWYQQKPGQAPRLLIYDASTRADGIPARFSGSGSGTDFTLTISSLEPEDFAVYYCQQFWSWPWTFGQGTKVEIKR
< 0.01 nM
